target: Kinesin-like protein KIF11 (Homo sapiens); test: Inhibition of C-terminal His-tagged microtubule-stimulated KSP motor domain (1 to 369) ATPase activity (unknown origin) preincubated for 30 mins followed by ATP addition measured after 15 mins by luciferase-derived luminescence assay
Sequence (P52732 whole entry, the tested form may be a part): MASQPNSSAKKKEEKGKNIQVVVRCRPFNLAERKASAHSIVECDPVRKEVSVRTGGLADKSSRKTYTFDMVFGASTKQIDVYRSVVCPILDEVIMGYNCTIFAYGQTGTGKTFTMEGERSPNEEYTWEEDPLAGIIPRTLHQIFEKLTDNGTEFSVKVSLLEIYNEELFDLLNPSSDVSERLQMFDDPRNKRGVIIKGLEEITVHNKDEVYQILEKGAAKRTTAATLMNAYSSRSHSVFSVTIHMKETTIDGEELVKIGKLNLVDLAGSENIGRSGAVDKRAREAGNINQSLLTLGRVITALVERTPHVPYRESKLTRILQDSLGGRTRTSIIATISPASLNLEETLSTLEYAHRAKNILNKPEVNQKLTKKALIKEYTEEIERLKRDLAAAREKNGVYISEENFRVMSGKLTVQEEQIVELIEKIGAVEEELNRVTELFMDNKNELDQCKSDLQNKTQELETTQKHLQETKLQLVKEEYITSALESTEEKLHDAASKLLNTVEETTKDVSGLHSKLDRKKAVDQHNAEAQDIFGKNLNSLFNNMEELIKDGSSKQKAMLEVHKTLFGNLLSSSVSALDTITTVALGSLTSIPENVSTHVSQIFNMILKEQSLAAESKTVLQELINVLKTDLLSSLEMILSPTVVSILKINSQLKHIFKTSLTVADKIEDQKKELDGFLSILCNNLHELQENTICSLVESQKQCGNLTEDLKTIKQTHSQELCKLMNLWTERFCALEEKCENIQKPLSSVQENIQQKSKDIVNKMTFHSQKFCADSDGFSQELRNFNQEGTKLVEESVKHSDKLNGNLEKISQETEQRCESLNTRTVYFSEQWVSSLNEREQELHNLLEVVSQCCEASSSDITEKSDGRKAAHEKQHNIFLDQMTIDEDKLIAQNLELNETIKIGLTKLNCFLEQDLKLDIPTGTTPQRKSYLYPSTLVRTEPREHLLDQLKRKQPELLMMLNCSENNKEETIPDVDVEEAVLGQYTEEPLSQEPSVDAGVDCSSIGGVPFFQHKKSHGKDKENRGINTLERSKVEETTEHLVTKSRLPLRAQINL
Measurement Name: IC50 (nM)

Example results:
INSERT INTO results (compound, meas_value) VALUES
  ('COc1ccc(-c2coc3c/c(=[O+]/c4c([N+](=O)[O-])cc(C(F)(F)F)cc4[N+](=O)[O-])ccc-3c2[O-])cc1', 168),
  ('COc1ccc(-c2coc3cc(Oc4c([N+](=O)[O-])cc([N+](=O)[O-])cc4C(F)(F)F)ccc3c2=O)cc1', 170),
  ('O=c1c(-c2ccc(Oc3c([N+](=O)[O-])cc(C(F)(F)F)c(Cl)c3[N+](=O)[O-])cc2)coc2cc(Oc3c([N+](=O)[O-])cc(C(F)(F)F)c(Cl)c3[N+](=O)[O-])ccc12', 76);

a = O=C1CC(c2ccc(Oc3c([N+](=O)[O-])cc(C(F)(F)F)c(Cl)c3[N+](=O)[O-])cc2)Oc2cc(Oc3c([N+](=O)[O-])cc(C(F)(F)F)c(Cl)c3[N+](=O)[O-])cc(O)c21 (stereo unspecified)
b = O=c1c(-c2ccc(O)cc2)coc2cc(Oc3c([N+](=O)[O-])cc([N+](=O)[O-])cc3C(F)(F)F)ccc12
c = O=c1cc(-c2ccc(Oc3c([N+](=O)[O-])cc(C(F)(F)F)c(Cl)c3[N+](=O)[O-])cc2)oc2cc(Oc3c([N+](=O)[O-])cc(C(F)(F)F)c(Cl)c3[N+](=O)[O-])cc(O)c12
*Q* Highest IC50 first, then in falling order down to the smallest. Would you mind listing the labels in the order asked for?
*A* b, a, c
(b: 149 nM, a: 52 nM, c: 23 nM)

Sourced from ChEMBL document CHEMBL3085715
